TARGET DESC: bromodomain of BRD9 (GST fusion) / acetylated histone H4 peptide (BET Bromodomain Ligand) (Homo sapiens, UniProt Q9H8M2)
Construct: A GST fusion protein of the bromodomain of BRD9
PROTOCOL DESCRIPTION: BRD9-H4 Tetraacetylated Peptide Inhibition AlphaScreen
MEASURED QUANTITY: IC50 (nM)

- COMPOUND: "Cc1ccc(-c2cn(C)c(=O)c3cccc(N)c23)cc1NS(C)(=O)=O [II-38]"
  TEST RESULT: 8420

[I] COc1cc(C(=O)N2CCNCC2)ccc1-c1cc(C)c(=O)n(C)c1 [Compound I-161]
[II] CCn1cc(-c2ccc(C(=O)N3CCN(C)CC3)cc2)c2ccccc2c1=O [II-15]
[III] Cc1cc(-c2ccc(C(=O)N3CCN(C)CC3)c3ccccc23)cn(C)c1=O [Compound I-175]
[IV] Cc1cc(-c2ccc(C(=O)N3CCN(C)CC3)c(O)c2)cn(C)c1=O [Compound I-188]
Parameters: sort_field (IC50), sort_dir (desc). The reply should contain the labels ordered as requested.
II, IV, III, I

---

TARGET DESC: bromodomain of BRD9 (GST-BRD9 aa 130-259) / H3 K9/14/18/23Ac(1-28) peptide (Homo sapiens, UniProt Q9H8M2)
Construct: The protein corresponding to amino acids 130-259 that contains the bromodomain of BRD9
Sequence (Q9H8M2 130-259): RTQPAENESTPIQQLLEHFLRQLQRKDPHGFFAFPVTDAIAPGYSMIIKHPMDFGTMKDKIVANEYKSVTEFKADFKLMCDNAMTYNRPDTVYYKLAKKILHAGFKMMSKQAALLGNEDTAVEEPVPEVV
PROTOCOL DESCRIPTION: BRD9-H3 tetra-acetylated Peptide Inhibition AlphaScreen
pIC50: −log10 of the molar value.
MEASURED QUANTITY: pIC50

Examples from the recorded data:
- COMPOUND: "COCc1c(OC)cc(-c2cc(C)c(=O)n(C)c2)cc1OC"
  pIC50: 6.85
- COMPOUND: "Cc1cc(-c2cc(C)c(=O)n(C)c2)ccc1S(=O)(=O)NCCN(C)C"
  pIC50: 6.65
- COMPOUND: "COc1cc(-c2cc(C)c(=O)n(C)c2)c(OC)cc1CN1CCN(C)CC1"
  pIC50: 6.74

[I] Cc1cc(-c2cccc(C3CCCCN3)c2)cn(C)c1=O (stereo not drawn)
[II] COc1cc(-c2cc(C)c(=O)n(C)c2)cc(C)c1C(=O)N1CCNCC1
[III] COc1cc(-c2cn(C)c(=O)c(C)c2C)cc(OC)c1CN1CC(O)C1
Parameters: sort_field (pIC50), sort_dir (desc). The reply should contain the labels ordered as requested.
III, II, I

[P] C[C@H](N)c1ccc(-c2cn(C)c(=O)c3ccccc23)cc1
[Q] Cc1cc(C(=O)N2CCNCC2)ccc1-c1cc(C)c(=O)n(C)c1
Given the listed items, does P or Q have the lesser reported pIC50? Give the label under which the chosen entry appears.
P
(P: 6.00, Q: 6.26)

---

TARGET DESC: bromodomain of BRD9 (GST fusion) / acetylated histone H4 peptide (BET Bromodomain Ligand) (Homo sapiens)
Construct: A GST fusion protein of the bromodomain of BRD9
PROTOCOL DESCRIPTION: BRD9-H4 Tetraacetylated Peptide Inhibition AlphaScreen
MEASURED QUANTITY: IC50 (nM)

Examples from the recorded data:
- MOLECULE: "CNCc1ccc(-c2cc(C)c(=O)n(C)c2)cc1OC [Compound I-192]"
  UNITS SYMBOL: "nM"
  IC50: 33
- MOLECULE: "CNc1ccc2c(-c3ccc(C)c(NS(C)(=O)=O)c3)cn(C)c(=O)c2c1 [II-40]"
  UNITS SYMBOL: "nM"
  IC50: 5440
- MOLECULE: "CCS(=O)(=O)Cc1cc(-c2cc(C)c(=O)n(C)c2)ccc1C(=O)N(C)C [Compound I-172]"
  UNITS SYMBOL: "nM"
  IC50: 294
- MOLECULE: "COc1cc(-c2cc(C)c(=O)n(C)c2)ccc1CN1CCNCC1 [Compound I-190]"
  UNITS SYMBOL: "nM"
  IC50: 21
- MOLECULE: "CCn1cc(-c2ccc(C)c(NS(C)(=O)=O)c2)cc(C)c1=O [Compound I-24]"
  UNITS SYMBOL: "nM"
  IC50: 3310

[P] Cc1ccc(-c2cc(C)c(=O)n(C)c2)cc1NS(C)(=O)=O [Compound I-23]
[Q] CN1CCN(C(=O)c2ccc(-c3cc(I)c(=O)n(C)c3)cc2)CC1 [Compound I-43]
Given the listed items, does P or Q have the lesser reported IC50? Give the label under which the chosen entry appears.
Q
(Q: 65 nM, P: 609 nM)

[I] CCS(=O)(=O)Nc1cc(-c2cn(C)c(=O)c3ccccc23)ccc1C [II-35]
[II] COc1cc(C(=O)N2CCN(C)CC2)ccc1-c1cc(C)c(=O)n(C)c1 [Compound I-173]
[III] CCn1cc(-c2ccc(C(=O)N(C)C)cc2)c2ccccc2c1=O [II-16]
[IV] CN1CCN(C(=O)c2ccc(-c3cn(C)c(=O)c4ccccc34)cc2)CC1 [II-4]
[V] CCS(=O)(=O)Cc1cc(-c2cc(C)c(=O)n(C)c2)ccc1C(=O)N1CCNCC1 [Compound I-169]
Parameters: sort_field (IC50), sort_dir (desc). The reply should contain the labels ordered as requested.
III, I, II, IV, V

[1] Cc1cc(-c2ccc(C(=O)N3CCN(C)CC3)cc2)cn(C)c1=O [Compound I-9]
[2] Cc1ccc(-c2cn(C)c(=O)c3cccc(C)c23)cc1NS(C)(=O)=O [II-28]
[3] Cc1c(-c2ccc(C(=O)N3CCN(C)CC3)cc2)cn(C)c(=O)c1C [Compound I-18]
[4] Cc1ccc(-c2cc(C)c(=O)n(C)n2)cc1NS(C)(=O)=O [Compound I-26]
Which order do these items take when sorted by rising IC50? List them. The reply should contain the labels ordered as requested.
3, 1, 2, 4
